Collected kon values appear next to each entry.
Target: T1, Human Angiopoietin-2 full-length (hAng2) (human, UniProt O15123 19-496)
T1 construct: The cell assays used full-length hAng2 from R&D Systems; also called human Ang2; A2
T1 sequence: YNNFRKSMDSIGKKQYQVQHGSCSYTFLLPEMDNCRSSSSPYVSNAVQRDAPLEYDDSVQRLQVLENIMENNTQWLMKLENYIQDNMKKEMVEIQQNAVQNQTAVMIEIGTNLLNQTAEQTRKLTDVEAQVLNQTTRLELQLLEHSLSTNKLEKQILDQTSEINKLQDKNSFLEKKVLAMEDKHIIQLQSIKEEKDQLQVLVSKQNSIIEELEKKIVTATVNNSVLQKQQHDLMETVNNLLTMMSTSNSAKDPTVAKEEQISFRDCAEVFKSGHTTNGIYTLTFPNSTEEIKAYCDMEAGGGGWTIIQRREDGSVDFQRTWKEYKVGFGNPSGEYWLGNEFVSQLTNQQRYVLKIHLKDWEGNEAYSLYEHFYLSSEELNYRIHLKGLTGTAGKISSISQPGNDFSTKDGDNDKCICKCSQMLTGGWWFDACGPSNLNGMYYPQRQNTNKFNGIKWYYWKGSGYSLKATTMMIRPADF
Experiment: BLI (Octet), antibody fixed on AR2G sensor, hAng2 3.125-50 nM in solution, 1:1 global fit
OBSERVATION_TYPE: kon (M⁻¹ s⁻¹)

binder="humanized anti-Ang2 antibody 2C8H43 (antibody, V domains shown, Full-length human IgG1) VH: QVQLVQSGAEVKKPGASVKVSCKASGYSFTSYWMHWVKQAPGQGLEWIGMIDPSDSETRLNQKFKDKASMTRDTSTSTVYMELSSLRSEDTAVYYCARRFYYGSDWYFDVWGQGTLVTVSS VL: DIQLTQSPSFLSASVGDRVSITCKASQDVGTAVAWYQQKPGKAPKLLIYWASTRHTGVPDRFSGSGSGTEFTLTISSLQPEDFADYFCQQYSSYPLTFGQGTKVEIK" scale_unit="M⁻¹ s⁻¹" measured_number=71100
binder="humanized anti-Ang2 antibody 2C8H51 (antibody, V domains shown, Full-length human IgG1) VH: QVQLVQSGAEVKKPGASVKVSCKASGYSFTSYWMHWVKQAPGQGLEWIGMIDPSDSETRLNQKFKDKASLTVDTSTSTVYMELSSLRSEDTAVYYCARRFYYGSDWYFDVWGQGTLVTVSS VL: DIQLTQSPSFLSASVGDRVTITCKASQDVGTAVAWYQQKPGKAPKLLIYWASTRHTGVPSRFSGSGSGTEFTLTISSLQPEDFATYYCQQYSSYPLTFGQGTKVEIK" scale_unit="M⁻¹ s⁻¹" measured_number=70200
binder="humanized anti-Ang2 antibody 4B9H21 (antibody, V domains shown, Full-length human IgG1) VH: QVQLVESGGGLVKPGGSLRLSCAASGFTFSDYYMYWVRQAPGKGLEWVSTISVGGSFTYYPDSVKGRFTISRDNAKNSLYLQMNSLRAEDTAVYYCARDWGLRPWFVYWGQGTLVTVSS VL: DIQMTQSPSSLSASVGDRVTITCKASQDVSTAVAWYQQKPGKAPKLLIYWASTRHTGVPSRFSGSGSGTDFTLTISSLQPEDFATYYCQQHYSTPPTFGQGTKVEIK" scale_unit="M⁻¹ s⁻¹" measured_number=73700
